biological target: PBR; assay: radioligand competition binding
pKi: −log10 of the molar value.
Property name: pKi

compound="COc1cc(CCNCc2ccccc2OCCF)c(OC)cc1Br [compound 1]" measured=6.06

---

target: Sigma1; experiment: radioligand competition binding
pKi: −log10 of the molar value.
Property name: pKi

structure_smiles_string=COc1cc(CCNCc2ccccc2OCCF)c(OC)cc1Br property_name=pKi measured=6.30

---

molecular target: DOR (Homo sapiens)
Sequence (P41143 whole entry): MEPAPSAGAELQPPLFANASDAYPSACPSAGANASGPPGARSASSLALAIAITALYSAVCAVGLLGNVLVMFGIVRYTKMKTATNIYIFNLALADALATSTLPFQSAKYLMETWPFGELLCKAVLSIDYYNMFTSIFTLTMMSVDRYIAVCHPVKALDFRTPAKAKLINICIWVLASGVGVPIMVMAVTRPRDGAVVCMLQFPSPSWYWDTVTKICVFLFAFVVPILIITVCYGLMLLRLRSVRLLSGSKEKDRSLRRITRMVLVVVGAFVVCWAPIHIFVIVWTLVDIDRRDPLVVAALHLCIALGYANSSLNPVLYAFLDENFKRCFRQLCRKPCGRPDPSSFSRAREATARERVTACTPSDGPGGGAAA
Property name: Ki

compound="COc1cc(CCNCc2ccccc2OCCF)c(OC)cc1Br [compound 1]" tested_target="DOR (Homo sapiens)" measured="> 10 µM"

---

molecular target: DAT (Homo sapiens); assay: biochemical
Sequence (Q01959 whole entry): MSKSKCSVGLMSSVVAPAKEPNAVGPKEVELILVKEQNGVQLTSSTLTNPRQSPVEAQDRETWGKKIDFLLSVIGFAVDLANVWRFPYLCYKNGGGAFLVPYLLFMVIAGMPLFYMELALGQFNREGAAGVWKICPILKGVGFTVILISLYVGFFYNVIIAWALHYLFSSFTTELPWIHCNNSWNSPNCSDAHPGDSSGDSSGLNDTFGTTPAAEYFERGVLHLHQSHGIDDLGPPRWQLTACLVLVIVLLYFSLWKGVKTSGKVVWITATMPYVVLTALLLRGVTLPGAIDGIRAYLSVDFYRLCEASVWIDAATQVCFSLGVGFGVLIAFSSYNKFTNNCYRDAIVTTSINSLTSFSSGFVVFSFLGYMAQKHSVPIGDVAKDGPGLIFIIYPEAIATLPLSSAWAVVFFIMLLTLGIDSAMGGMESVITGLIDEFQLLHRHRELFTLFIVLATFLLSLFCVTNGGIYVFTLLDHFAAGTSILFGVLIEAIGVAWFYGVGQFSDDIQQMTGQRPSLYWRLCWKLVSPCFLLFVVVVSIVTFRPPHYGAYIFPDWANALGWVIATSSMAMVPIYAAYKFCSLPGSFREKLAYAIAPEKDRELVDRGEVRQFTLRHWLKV
Property name: Ki

structure_smiles_string=COc1cc(CCNCc2ccccc2OCCF)c(OC)cc1Br measured="> 10 µM"
